tested on: SR leukemia; experiment: NCI tumour cell line growth inhibition, 48 h
TGI values by entry
Please respond with the number in µM and leave the unit unwritten.

CCN1C/C(=C\c2cc(OC)c(OC)cc2OC)C(=O)/C(=C/c2cc(OC)c(OC)cc2OC)C1 :: 8.99

Lab note: need TGI with SR leukemia for entry "O=[N+]([O-])c1cccc2nc3ccccc3c(NCCCn3ccnc3[N+](=O)[O-])c12" , please look it up. 0.131

====

GI50 values by entry
test system: OVCAR-8 ovarian; assay: NCI tumour cell line growth inhibition, 48 h

Example molecules with recorded GI50:
COc1ccc2c(c1)/C(=C\c1c(-c3cc(OC)ccc3OC)nc3sc(C)cn13)C(=O)N2C :: 28.2 µM
OCCN1CCN(CCCN2c3ccccc3Sc3ccc(Cl)cc32)CC1 :: 2.02 µM
CCC(C)[C@H]1O[C@]2(CC[C@@H]1C)C[C@@H]1C[C@@H](C/C=C(\C)[C@@H](OC3C[C@H](OC)C(O[C@H]4C[C@H](OC)[C@@H](O)[C@H](C)O4)[C@H](C)O3)[C@@H](C)/C=C/C=C3\CO[C@@H]4[C@H](O)C(C)=C[C@@H](C(=O)O1)[C@]34O)O2 (some centres not stated) :: 3.06 µM
Cc1nc([P+](c2ccccc2)(c2ccccc2)c2ccccc2)c(Sc2sc(-c3ccccc3)nc2[P+](c2ccccc2)(c2ccccc2)c2ccccc2)o1 :: 0.867 µM
Cc1cccc(N(C)C(=O)[C@@H]2[C@H](O)CCN2c2nc(C)cc(C(F)(F)F)c2C#N)c1 :: 28.1 µM

I would be grateful if you could share the reported GI50 for "O=C(Nc1ccc2[nH]nc(-c3ccncc3)c2c1)[C@@H]1CCN(CC(=O)N2CCN(c3ccc(-c4ncccn4)cc3)CC2)C1" . 3.65 µM

Okay, and "COC[C@@H](N=C1NC(=O)/C(=C/c2ccc3ncccc3c2)S1)c1ccccc1" ? 10.2 µM

====

test system: HL-60(TB) leukemia; assay: NCI tumour cell line growth inhibition, 48 h
Metric Name: TGI

Example compounds with recorded TGI:
C[C@@H](c1ccccc1)n1c(N)c(-c2ccccn2)c2ccc([N+](=O)[O-])cc2c1=O :: > 100 µM
Fc1cccc(COc2ccc(Nc3ncnc4sc(-c5cccs5)cc34)cc2Cl)c1 :: > 25 µM
CCN(Cc1ccc(C)cc1)c1ccc(CO)c(Cl)c1 :: 35.7 µM

// next item, TGI requested
I would be grateful if you could share the reported TGI for "CN(CCN1C(=O)c2cc([N+](=O)[O-])cc3cc([N+](=O)[O-])cc(c23)C1=O)CCN1C(=O)c2cc([N+](=O)[O-])cc3cc([N+](=O)[O-])cc(c23)C1=O" . 0.536 µM

====

test system: SN12C renal; assay: NCI tumour cell line growth inhibition, 48 h
Metric Name: TGI

O=C1NC(N2CCOCC2)=N/C1=C\c1ccc(Cl)cc1 :: > 100 µM
O=c1[nH]c(=O)n(COCc2ccccc2)c2ccsc12 :: > 100 µM
CC(NC(=O)/C(=C/c1ccccc1)NC(=O)c1ccccc1)C(=O)O (centres undefined) :: > 100 µM
CN(C)CCCc1cccc2[nH]c3c(c12)CN(C)CC3 :: > 100 µM
Cc1c(N2C(=O)/C(=C/c3ccc(Cl)cc3)N=C2c2ccccc2)c(=O)n(-c2ccccc2)n1C :: > 100 µM
NS(=O)(=O)c1ccc(Nc2cc(-c3cccc(O)c3)[nH]n2)cc1 :: > 25 µM

// next item, TGI requested
I would be grateful if you could share the reported TGI for "CC(C)(C)OC(=O)n1c2ccccc2c2c(=O)nc(N3CCCCC3)sc21" . > 100 µM
